- Test system: BT-549 breast
- ASSAY_OVERVIEW: NCI tumour cell line growth inhibition, 48 h
METRIC_NAME: TGI

CC(C)c1c(P(=O)(c2ccccc2)c2ccccc2)n(C)c2ccccc12: > 100 µM
CN(C)S(=O)(=O)Nc1ccccn1: > 100 µM

Please look at the items below and tell me TGI for each one, in order.
1. CN(O)C(=O)Cc1ccc(OCc2cccc(Cl)c2)cc1
2. O=C1c2ccccc2-c2c1c1cc3c(cc1c(=O)n2CCCCl)OCO3
3. COc1cccc(-c2nn(-c3ccccc3)cc2-c2ccnc(NCCCNS(=O)(=O)c3cccc(F)c3)c2)c1

*A*
1. > 100 µM
2. > 100 µM
3. > 100 µM
